# measured-target: UniProt:P03956
# Sequence (P03956 100-469): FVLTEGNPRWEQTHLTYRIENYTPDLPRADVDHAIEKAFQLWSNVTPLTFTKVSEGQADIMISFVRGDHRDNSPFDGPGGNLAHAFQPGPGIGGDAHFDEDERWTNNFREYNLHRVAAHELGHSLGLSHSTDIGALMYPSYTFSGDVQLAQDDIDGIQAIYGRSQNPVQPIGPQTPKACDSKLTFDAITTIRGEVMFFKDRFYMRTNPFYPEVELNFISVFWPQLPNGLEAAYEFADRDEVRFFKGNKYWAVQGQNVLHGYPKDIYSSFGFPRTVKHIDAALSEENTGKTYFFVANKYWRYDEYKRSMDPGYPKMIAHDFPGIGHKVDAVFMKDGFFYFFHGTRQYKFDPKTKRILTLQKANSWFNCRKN
# experiment-summary: MMP-1 inhibitory action (Type I collagen Activity Measurement kit, FITC-labeled collagen type I)
# Format: biochemical
# cond: Experimental Example 2; read-out: IC50 MMP1
# Experimental: For MMP-1 Assay, Type I collagen Activity Measurement kit (YAGAI YU-72013) modified to a 96-well plate format was used. The principle of the kit is based on the property of collagen that becomes soluble in ethanol after being cleaved by MMP-1. […] The reaction was terminated by addition of Tris-HCl buffer containing ethanol. […] The collagenase activity of MMP-1 was determined by measuring FITC fluorescence intensity (excitation wavelength 485 nm, emission wavelength 530 nm) of each well. […]
quantity-measured: IC50

Recorded results for 10 compounds are shown here.
# compound, endpoint-value
measured = [
    ("CC(C)(C)OC(=O)NCCCC1(c2ccccc2)CC1(NS(=O)(=O)c1ccc(-c2ccc(Cl)cc2)s1)C(=O)O (stereo not drawn)", "≥ 1000 nM"),
    ("O=C(O)C1(NS(=O)(=O)c2ccc(-c3ccc(Cl)cn3)s2)C2CCCc3ccccc3C21 (stereo not drawn)", "< 1000 nM"),
    ("CC1[C@H](c2ccccc2)[C@]1(NS(=O)(=O)c1ccc(-n2cc(C#N)cn2)s1)C(=O)O (stereo partly drawn)", "≥ 1000 nM"),
    ("O=C(O)C1(NS(=O)(=O)c2ccc(-c3cc(C(F)(F)F)on3)s2)C2CCC(O)c3ccccc3C21 (stereo not drawn) [Example 2-438]", "< 1000 nM"),
    ("CC1C(c2ccccc2)C1(NS(=O)(=O)c1ccc(-c2ccc(Cl)cc2)s1)C(=O)O (stereo not drawn)", "≥ 1000 nM"),
    ("CC1[C@H](c2ccccc2)[C@]1(NS(=O)(=O)N1CCCN(c2ccc(Cl)cc2)CC1)C(=O)O (stereo partly drawn)", "≥ 10000 nM"),
    ("CC1(c2ccccc2Cl)CC1(NS(=O)(=O)c1ccc(-c2cc(C(F)(F)F)on2)s1)C(=O)O (stereo not drawn)", "< 1000 nM"),
    ("CC1[C@H](c2ccccc2)[C@]1(NS(=O)(=O)c1ccc(-n2cc(CO)cn2)s1)C(=O)O (stereo partly drawn)", "< 100 nM"),
    ("CC1[C@H](c2ccccc2)[C@]1(NS(=O)(=O)N1CCCN(c2cccc(Cl)c2)CC1)C(=O)O (stereo partly drawn)", "≥ 10000 nM"),
    ("CC1[C@H](c2ccccc2)[C@]1(NS(=O)(=O)N1CCN(c2ccc(Cl)nn2)CC1)C(=O)O (stereo partly drawn)", "≥ 1000 nM"),
]

Exercise: # get_value(readout='IC50', item= CC1[C@H](c2ccccc2)[C@]1(NS(=O)(=O)N1CCN(c2ccc(C(F)(F)F)cc2)CC1)C(=O)O (stereo partly drawn) )
Solution: ≥ 1000 nM

Exercise: May I ask what IC50 has been recorded for CC1[C@H](c2ccccc2)[C@]1(NS(=O)(=O)N1CCN(c2ccncc2)CC1)C(=O)O (stereo partly drawn) ?
Solution: ≥ 1000 nM

Exercise: Reported IC50 for COc1cc2c(cc1OC)CN(S(=O)(=O)N[C@@]1(C(=O)O)C(C)[C@@H]1c1ccccc1)CC2 (stereo partly drawn) : what is it?
Solution: ≥ 1000 nM

Exercise: Look up IC50: CC1[C@H](c2ccccc2)[C@]1(NS(=O)(=O)c1ccc(-c2cc(C(F)F)on2)cc1)C(=O)O (stereo partly drawn)
Solution: < 1000 nM

Exercise: Looking for the measured IC50 of CCNC(=O)NCC1(c2ccccc2)CC1(NS(=O)(=O)c1ccc(-c2ccc(Cl)cc2)s1)C(=O)O (stereo not drawn) , can you help?
Solution: ≥ 10000 nM
